Tgt: VCP (p97, Valosin-containing protein) (Homo sapiens)
Construct: Full-length VCP (6xHis-tag)
Measurement Description: SPR
Type: binding
Measurement Kind: pKd
As a rule, pKd stands for the negative log10 of the concentration, concentration in M.

Under VCP (p97, Valosin-containing protein) (Homo sapiens): pKd value of COc1cccc2c(NCc3ccccc3)nc(-n3c(N)nc4ccccc43)nc12 [ML240] ?
6.64

* * *

Tgt: VCP (p97, Valosin-containing protein) (Homo sapiens, UniProt P55072)
Construct: Full-length VCP (6xHis-tag)
Sequence (P55072 2-806): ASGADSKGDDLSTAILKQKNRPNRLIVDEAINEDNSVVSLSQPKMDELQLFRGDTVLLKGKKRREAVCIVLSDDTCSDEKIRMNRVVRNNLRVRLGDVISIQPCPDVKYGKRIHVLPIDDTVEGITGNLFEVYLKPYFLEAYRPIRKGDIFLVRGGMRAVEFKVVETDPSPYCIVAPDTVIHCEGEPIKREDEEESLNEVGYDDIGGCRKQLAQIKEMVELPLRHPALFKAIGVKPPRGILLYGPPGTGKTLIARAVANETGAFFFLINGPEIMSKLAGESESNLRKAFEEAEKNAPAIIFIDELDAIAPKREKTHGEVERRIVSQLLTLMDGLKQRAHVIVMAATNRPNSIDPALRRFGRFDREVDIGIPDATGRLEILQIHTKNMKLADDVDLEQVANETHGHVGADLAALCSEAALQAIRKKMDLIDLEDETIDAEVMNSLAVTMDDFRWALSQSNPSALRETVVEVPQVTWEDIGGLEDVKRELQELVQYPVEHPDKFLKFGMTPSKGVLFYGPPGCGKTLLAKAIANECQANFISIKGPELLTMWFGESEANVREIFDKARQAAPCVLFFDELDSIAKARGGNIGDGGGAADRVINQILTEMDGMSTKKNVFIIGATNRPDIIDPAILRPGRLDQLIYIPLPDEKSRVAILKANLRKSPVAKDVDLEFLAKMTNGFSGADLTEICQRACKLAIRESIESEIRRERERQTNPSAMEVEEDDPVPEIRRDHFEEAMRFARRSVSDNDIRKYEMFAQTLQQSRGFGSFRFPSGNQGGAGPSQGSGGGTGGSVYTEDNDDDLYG
Measurement Description: SPR (also DARTS, LiP-MS, competition pulldown, ATPase activation)
Type: binding
Measurement Kind: Kd

Given the entry `C=CCNc1ncnc2ccc(Br)cc12` , what Kd was observed with VCP (p97, Valosin-containing protein) (Homo sapiens, UniProt P55072)?
~750 nM
